- Assay notes: mouse pharmacokinetics
- Assay type: in vivo
- Conditions: plasma, ip, 20 mg/kg, plasma Cmax, ip 20 mg/kg
Quantity name: Cmax (µM)
The reply should be a number in µM, with the unit left off.

Exercise: Param item = O=C(Nc1ncc(C2(O)CCC2)s1)c1ccc(F)c(Cl)c1 ; retrieve measured Cmax.
Solution: 23

====

- Assay notes: mouse pharmacokinetics
- Format: in vivo
- Conditions: plasma, po, 20 mg/kg, plasma Cmax, adult mice, orally 20 mg/kg
Quantity name: Cmax
Don't forget the unit after the value.

Exercise: Param item = O=C(Nc1ncc(C2(O)CCC2)s1)c1ccc(F)c(Cl)c1 ; retrieve measured Cmax.
Solution: 900 nM
